test: Half life in Wistar rat at 2 mg/kg, iv
Type: ADME, organism-based
Set-up: dose 2 mg/kg, route intravenous
conditions-used: in vivo
attribute-measured: half-life (h)
One number for each entry, in h.

Solved entries (count: 2):
[[record]]
smiles_code = "CCNCc1cn(CC(=O)Nc2sc3c(c2C(N)=O)CCCC3)nc1C(F)(F)F"
measured = 1.1

[[record]]
smiles_code = "O=C(Cn1nc(C(F)(F)F)c2c1CCCC2)Nc1sc2c(c1C(=O)N[C@@H]1CCNC1)CCCC2"
measured = 3.8


Can you give me half-life for all of these, one by one?
1. CNCc1cn(CC(=O)Nc2sc3c(c2C(N)=O)CCCC3)nc1C(F)(F)F
2. CNCc1cn(CC(=O)Nc2sc3c(c2C(N)=O)CCCC3)nc1C(C)(C)C

[1.5, 1.9]
